Below, each entry is listed alongside its reported pKi.
molecular target: NAALADase (Homo sapiens)
Sequence (Q04609 whole entry): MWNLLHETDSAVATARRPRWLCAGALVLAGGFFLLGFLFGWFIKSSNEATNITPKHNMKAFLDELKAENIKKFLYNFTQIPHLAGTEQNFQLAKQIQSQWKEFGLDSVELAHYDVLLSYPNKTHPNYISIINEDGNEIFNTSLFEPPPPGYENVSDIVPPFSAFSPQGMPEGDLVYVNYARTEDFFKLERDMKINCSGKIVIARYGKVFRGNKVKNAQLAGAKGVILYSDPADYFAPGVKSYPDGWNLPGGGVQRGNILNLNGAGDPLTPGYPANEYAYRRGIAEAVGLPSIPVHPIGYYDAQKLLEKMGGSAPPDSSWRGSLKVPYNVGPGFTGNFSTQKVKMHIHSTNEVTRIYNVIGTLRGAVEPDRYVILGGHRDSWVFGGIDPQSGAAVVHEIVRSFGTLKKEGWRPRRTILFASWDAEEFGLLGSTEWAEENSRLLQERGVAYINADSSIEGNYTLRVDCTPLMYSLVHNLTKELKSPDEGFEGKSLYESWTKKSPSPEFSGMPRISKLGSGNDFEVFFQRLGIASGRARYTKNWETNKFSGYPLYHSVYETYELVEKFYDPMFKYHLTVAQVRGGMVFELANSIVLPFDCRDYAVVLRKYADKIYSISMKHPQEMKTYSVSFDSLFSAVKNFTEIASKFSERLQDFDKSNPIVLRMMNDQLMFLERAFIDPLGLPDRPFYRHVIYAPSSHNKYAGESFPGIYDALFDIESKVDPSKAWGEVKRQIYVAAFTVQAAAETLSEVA
pKi: −log10 of the molar value.

>  <Molecule>
O=C(O)C(CCc1ccccc1)CP(=O)(O)O (centres unmarked)

>  <pKi>
6.70

$$$$
>  <Molecule>
O=C(O)CCC(CP(=O)(O)c1ccc(F)cc1)C(=O)O (centres unmarked)

>  <pKi>
6.27

$$$$
>  <Molecule>
Cc1ccc(P(=O)(O)CC(CCC(=O)O)C(=O)O)cc1 (centres unmarked)

>  <pKi>
6.69

$$$$
>  <Molecule>
O=C(O)CCP(=O)(O)O

>  <pKi>
6.63

$$$$
>  <Molecule>
O=C(O)CCC(CP(=O)(O)CC(CCC(=O)OCc1ccccc1)C(=O)OCc1ccccc1)C(=O)O (centres unmarked)

>  <pKi>
7.89

$$$$
>  <Molecule>
Cc1ccc(NCP(=O)(O)CC(CCC(=O)O)C(=O)O)cc1 (centres unmarked)

>  <pKi>
8.30

$$$$
>  <Molecule>
O=C(O)CCC(CP(=O)(O)c1ccccc1)C(=O)O (centres unmarked)

>  <pKi>
7.44

$$$$
>  <Molecule>
O=C(O)CCC(CP(=O)(O)C(NC(=O)O)c1ccccc1)C(=O)O (centres unmarked)

>  <pKi>
5.70

$$$$
>  <Molecule>
O=C(O)CCC(CP(=O)(O)Cc1ccc(O)cc1)C(=O)O (centres unmarked)

>  <pKi>
6.93

$$$$
>  <Molecule>
O=C(O)CCC(CP(=O)(O)C(NCc1ccccc1)c1ccccc1)C(=O)O (centres unmarked)

>  <pKi>
6.50

$$$$
>  <Molecule>
O=C(O)CCC(CP(=O)(O)CNC(=S)Nc1ccccc1)C(=O)O (centres unmarked)

>  <pKi>
7.12

$$$$
>  <Molecule>
CP(=O)(O)CC(CCC(=O)O)C(=O)O (centres unmarked)

>  <pKi>
5.96

$$$$
>  <Molecule>
O=C(O)CCC(CCS)C(=O)O (centres unmarked)

>  <pKi>
6.29

$$$$
>  <Molecule>
O=C(O)CCC(CP(=O)(O)Cc1ccccc1)C(=O)O (centres unmarked)

>  <pKi>
7.28

$$$$
>  <Molecule>
O=C(O)CCC(CP(=O)(O)CNc1ccc(F)cc1)C(=O)O (centres unmarked)

>  <pKi>
8.05

$$$$
>  <Molecule>
CC(CP(=O)(O)O)C(=O)O (centres unmarked)

>  <pKi>
8.70

$$$$
>  <Molecule>
CC(CS)C(CCC(=O)O)C(=O)O (centres unmarked)

>  <pKi>
6.07

$$$$
>  <Molecule>
O=C(O)CCC(CP(=O)(O)CN(Cc1ccccc1)Cc1ccccc1)C(=O)O (centres unmarked)

>  <pKi>
6.76

$$$$
>  <Molecule>
O=C(O)CC(CP(=O)(O)O)C(=O)O (centres unmarked)

>  <pKi>
6.15

$$$$
>  <Molecule>
Cc1cccc(P(=O)(O)CC(CCC(=O)O)C(=O)O)c1 (centres unmarked)

>  <pKi>
6.74

$$$$
>  <Molecule>
COC(=O)c1ccc(CP(=O)(O)CC(CCC(=O)O)C(=O)O)cc1 (centres unmarked)

>  <pKi>
6.13

$$$$
>  <Molecule>
O=C(O)CCC(CP(=O)(O)Cc1c(F)c(F)c(F)c(F)c1F)C(=O)O (centres unmarked) [drawing 45]

>  <pKi>
7.64

$$$$
>  <Molecule>
O=C(O)CCC(CP(=O)(O)CN1C(=O)c2ccccc2C1=O)C(=O)O (centres unmarked)

>  <pKi>
7.47

$$$$
>  <Molecule>
CC(C)(C)c1ccc(NCP(=O)(O)CC(CCC(=O)O)C(=O)O)cc1 (centres unmarked)

>  <pKi>
8.70

$$$$
>  <Molecule>
O=C(O)C(Cc1ccccc1)CP(=O)(O)O (centres unmarked)

>  <pKi>
6.26

$$$$
>  <Molecule>
O=C(O)CCC(CP(=O)(O)CNC(=O)c1ccccc1)C(=O)O (centres unmarked)

>  <pKi>
6.85

$$$$
